# systemName: PARP-1 (Homo sapiens, UniProt P09874)
# Sequence (P09874 whole entry): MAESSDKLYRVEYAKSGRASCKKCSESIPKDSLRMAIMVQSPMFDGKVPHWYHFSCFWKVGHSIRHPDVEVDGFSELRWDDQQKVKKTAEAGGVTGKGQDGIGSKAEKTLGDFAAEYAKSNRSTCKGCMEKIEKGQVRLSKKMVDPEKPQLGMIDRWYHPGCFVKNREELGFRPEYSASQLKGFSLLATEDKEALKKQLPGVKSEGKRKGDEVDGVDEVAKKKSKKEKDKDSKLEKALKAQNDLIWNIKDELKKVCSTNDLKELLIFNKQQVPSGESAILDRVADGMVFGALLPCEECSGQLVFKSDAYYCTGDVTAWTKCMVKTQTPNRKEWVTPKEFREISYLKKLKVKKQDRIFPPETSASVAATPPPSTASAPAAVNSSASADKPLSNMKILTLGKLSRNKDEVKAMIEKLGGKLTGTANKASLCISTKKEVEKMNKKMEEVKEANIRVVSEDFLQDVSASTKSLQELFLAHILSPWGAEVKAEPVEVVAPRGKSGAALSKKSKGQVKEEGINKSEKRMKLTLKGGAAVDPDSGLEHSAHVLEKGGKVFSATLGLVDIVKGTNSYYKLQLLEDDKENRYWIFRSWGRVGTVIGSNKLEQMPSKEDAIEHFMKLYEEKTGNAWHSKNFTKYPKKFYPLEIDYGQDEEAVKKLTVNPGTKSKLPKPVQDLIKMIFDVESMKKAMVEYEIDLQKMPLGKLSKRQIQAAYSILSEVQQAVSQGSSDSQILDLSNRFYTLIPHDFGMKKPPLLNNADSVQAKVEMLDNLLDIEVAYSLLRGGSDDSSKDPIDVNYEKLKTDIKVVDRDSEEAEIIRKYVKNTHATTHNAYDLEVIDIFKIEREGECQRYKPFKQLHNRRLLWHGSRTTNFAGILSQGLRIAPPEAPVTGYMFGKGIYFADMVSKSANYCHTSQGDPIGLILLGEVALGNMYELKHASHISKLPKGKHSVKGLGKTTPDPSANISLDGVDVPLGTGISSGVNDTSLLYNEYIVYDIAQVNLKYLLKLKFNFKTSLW
# assayInfo: PARP-1 radioligand binding in live OVCAR8 cells ([125I]KX1 competition)
Categories are defined by ranges of EC50, namely class 0: < 10 nM; class 1: ≥ 10 nM and < 200 nM; class 2: ≥ 200 nM

O=C(c1cc(Cc2n[nH]c(=O)c3ccccc23)ccc1F)N1CC2(CC(OCCF)C2)C1 [Compound 37B]	class 1
O=C(c1cc(Cc2n[nH]c(=O)c3ccccc23)ccc1F)N1CC(OCCF)C1 [Compound 26]	class 0

Returns: class label. Input: O=C(c1cc(Cc2n[nH]c(=O)c3ccccc23)ccc1F)N1CCC2(CNC2)C1 [Compound 14c]
class 2

Returns: class label. Input: O=C(c1cc(Cc2n[nH]c(=O)c3ccccc23)ccc1F)N1CCC(c2ccc(F)cc2)CC1 [Compound 36]
class 0

Returns: class label. Input: COC1CCC(NC(=O)c2cc(Cc3n[nH]c(=O)c4ccccc34)ccc2F)CC1 (stereo not drawn) [Compound 22]
class 2

Returns: class label. Input: CC(C)(C)OC(=O)N1CCC2(CC1)CCN(C(=O)c1cc(Cc3n[nH]c(=O)c4ccccc34)ccc1F)C2 [Compound 16b]
class 2

Returns: class label. Input: O=C(c1cc(Cc2n[nH]c(=O)c3ccccc23)ccc1F)N1CCC2(CCN(C(=O)C3CC3)CC2)C1 [Compound 16d]
class 2

Returns: class label. Input: COC1CCN(C(=O)c2cc(Cc3n[nH]c(=O)c4ccccc34)ccc2F)C1 (stereo not drawn) [Compound 24]
class 0

Returns: class label. Input: O=C(c1cc(Cc2n[nH]c(=O)c3ccccc23)ccc1F)N1CC2(C1)CN(c1ccc(F)cc1)C2 [Compound 40]
class 0

Returns: class label. Input: CC(C)(C)OC(=O)N1CC2(CCN(C(=O)c3cc(Cc4n[nH]c(=O)c5ccccc45)ccc3F)C2)C1 [Compound 14b]
class 2

Returns: class label. Input: O=C(c1cc(Cc2n[nH]c(=O)c3ccccc23)ccc1F)N1CC2(CCCCC2)C1 [Compound 12a]
class 1

###

# Tested on: MEF PARP-2 (-/-) KO cells
# assayInfo: Cell viability assay in MEF PARP-2 KO-/- cells
# Format: cell-based, mouse
# conditionParameters: Mus musculus, NA = Not applicable, no cell death observed
# Method: Genetically engineered PARP-1 and PARP-2 double knockout mouse embryonic fibroblast (MEF) were used for cell viability studies with wildtype control. Cell viability assays were carried out using four cell lines including OVCAR8, MEF wt, MEF PARP-1 (−/−) KO, and MEF PARP-2 (−/−) KO as described in Makvandi cited above. Briefly, cells were seeded in black wall clear bottom 96-well plates at concentrations of 1,000 cells/well. […] Plates were read on an Enspire multimode plate reader (Perkin Elmer). […]
recordedEndpoint: EC50 (µM)
Express it in µM; write the number only.

Report the value of EC50 obtained on MEF PARP-2 (-/-) KO cells for CC(C)(C)OC(=O)N1CC2(CCN2C(=O)c2cc(Cc3n[nH]c(=O)c4ccccc34)ccc2F)C1 [Compound 11b] .
35.8

Report the value of EC50 obtained on MEF PARP-2 (-/-) KO cells for O=C(c1cc(Cc2n[nH]c(=O)c3ccccc23)ccc1F)N1CCC2(CCN(C(=O)C3CC3)C2)C1 (centres unmarked) [Compound 15d] .
70.9

Report the value of EC50 obtained on MEF PARP-2 (-/-) KO cells for O=C(c1cc(Cc2n[nH]c(=O)c3ccccc23)ccc1F)N1CCC2(CCCCC2)C1 [Compound 16a] .
46.8

Report the value of EC50 obtained on MEF PARP-2 (-/-) KO cells for O=C(c1cc(Cc2n[nH]c(=O)c3ccccc23)ccc1F)N1CCC2(CCC2)C1 [Compound 14a] .
54.7

Report the value of EC50 obtained on MEF PARP-2 (-/-) KO cells for O=C(c1cc(Cc2n[nH]c(=O)c3ccccc23)ccc1F)N1CCC2(CCN(C(=O)C3CC3)CC2)C1 [Compound 16d] .
61

Report the value of EC50 obtained on MEF PARP-2 (-/-) KO cells for O=C(c1cc(Cc2n[nH]c(=O)c3ccccc23)ccc1F)N1CCC12CCCCC2 [Compound 13a] .
78.8

Report the value of EC50 obtained on MEF PARP-2 (-/-) KO cells for O=C(c1cc(Cc2n[nH]c(=O)c3ccccc23)ccc1F)N1CC2(CCC2)C1 [Compound 10a] .
49

Report the value of EC50 obtained on MEF PARP-2 (-/-) KO cells for O=C(c1cc(Cc2n[nH]c(=O)c3ccccc23)ccc1F)N1CCC2(CC1)CCN(C(=O)C1CC1)CC2 [Compound 17d] .
21.6

Report the value of EC50 obtained on MEF PARP-2 (-/-) KO cells for O=C(c1cc(Cc2n[nH]c(=O)c3ccccc23)ccc1F)N1CCC12CCNCC2 [Compound 13c] .
106

The reported numbers originate from patent US11542282B2.
